All values here come from patent US20240109868A1.

test system: vCap Cell; assay: vCap cell growth inhibition, CellTiter-Glo, 72 h; assay type: cell-based; settings: vCap cells, 72 h culture
readout_kind: IC50

| compound | IC50 |
| --- | --- |
| CC(=O)N1Cc2cc(C3CCC([S@@](C)(=N)=O)CC3)cc(N3CCCc4cc(-c5cnn(C)c5)c(C(F)F)cc43)c2C1 (some centres unmarked) | > 1000 nM |
| COC1CCC(c2cc3c(c(N4CCCc5cc(-c6cnn(C)c6)c(C(F)F)cc54)c2)CN(C(C)=O)CC3)CC1 (centres unmarked) | > 1000 nM |
| CC(=O)N1Cc2cc(C3CCN(CC(C)O)C(=O)C3)cc(N3CCCc4cc(-c5cnn(C)c5)c(C(F)F)cc43)c2C1 (centres unmarked) | < 1000 nM |
| CSC1CCC(c2cc3c(c(N4CCCc5cc(-c6cnn(C)c6)c(C(F)F)cc54)c2)CN(C(C)=O)C3)CC1 (centres unmarked) | < 1000 nM |
| COC(=O)N1Cc2cc(C3CCC(OC)CC3)cc(N3CCCc4cc(-c5cnn(C)c5)c(C(F)F)cc43)c2C1 (centres unmarked) | > 1000 nM |

May I ask what IC50 has been recorded for CC(=O)N1Cc2cc(C3CCC(N)CC3)cc(N3CCCc4cc(-c5cnn(C)c5)c(C(F)F)cc43)c2C1 (centres unmarked) ? > 1000 nM

May I ask what IC50 has been recorded for CC(=O)N1Cc2cc(C3CCC(S(C)(=N)=O)CC3)cc(N3CCCc4cc(-c5cnn(C)c5)c(C(F)F)cc43)c2C1 (centres unmarked) ? > 1000 nM

May I ask what IC50 has been recorded for CNC(=O)N1CCc2cc(C3CCC(OC)CC3)cc(N3CCCc4cc(-c5cnn(C)c5)c(C(F)F)cc43)c2C1 (centres unmarked) ? > 1000 nM
